This section presents compounds with their documented GI50 values.
- Test system: CAKI-1 renal
- ASSAY EXPLANATION: NCI tumour cell line growth inhibition, 48 h

# COMPOUND, GI50
data = [
    ("CCCCCCCCCCCCCC[n+]1ccc(C(N)=O)cc1", "3040 nM"),
    ("CN(C)CCCC1(c2ccc(F)cc2)OCc2cc(-c3cc4ccccc4s3)ccc21 (stereo not drawn)", "1290 nM"),
]

Now take the following compound into account.
*Q* Request the reported GI50 associated with `C[n+]1c2ccccc2nc2ccccc21`
*A* 2090 nM

====

- Test system: CCRF-CEM leukemia
- ASSAY EXPLANATION: NCI tumour cell line growth inhibition, 48 h
READOUT LABEL: TGI

Examples with their reported TGI follow.
# COMPOUND, TGI
records = [
    ("Cc1ccc(S(=O)(=O)N/N=C2\\CC3CC4CCC2C4C3)cc1 (configuration not stated)", "> 100 µM"),
    ("COc1cc2c(cc1Oc1c(Oc3c(O)c(OC)cc4c3C(CC(C)C)N(C)CC4)c(OC)cc3c1C(CC(C)C)N(C)CC3)C(CC(C)C)N(C)CC2 (configuration not stated)", "6.3 µM"),
]

*Q* Which TGI is reported with CCRF-CEM leukemia for this entry: `O=c1[nH]nc(Nc2ccccc2)c2nnn(C3CCCCC3)c12` ?
*A* > 100 µM
